Origin of measurements: ChEMBL document CHEMBL1201862

# System: OVCAR-3
# assay.details: NCI tumour cell line growth inhibition, 48 h
Active and inactive are the calls of the source. Cut-off read from the data, not from the text of the source: active = GI50 up to about 1.1 µM and inactive = higher.
I would appreciate it if you answered using one of these outcomes: active, inactive

Q) Kindly provide the recorded test outcome for the following compound: "CN(C)c1ccc(/C=C2\Oc3ccccc3C2=O)cc1"
A) inactive

Q) Kindly provide the recorded test outcome for the following compound: "C/C(=N\NC(=O)CC(=O)Nc1ccc(Cl)cc1)c1cc2ccccc2oc1=O"
A) inactive

Q) Kindly provide the recorded test outcome for the following compound: O=C1c2ccccc2-n2nnnc2C2CSCN12 (centres undefined)
A) inactive

Q) Kindly provide the recorded test outcome for the following compound: "O=C(N/C(=C\c1ccc(Br)cc1)c1nc2ccccc2[nH]1)c1ccccc1"
A) inactive

Q) Kindly provide the recorded test outcome for the following compound: Cc1c2ccncc2c(C)c2c1[nH]c1ccccc12 [ELLIPTECINE]
A) active

Q) Kindly provide the recorded test outcome for the following compound: "COc1cc2nc(-c3cccs3)oc(=O)c2cc1OC"
A) inactive

Q) Kindly provide the recorded test outcome for the following compound: CC(NNC(=O)c1cc[n+]([BH2-]C#N)cc1)c1ccc(Cl)cc1Cl (centres undefined)
A) inactive

Q) Kindly provide the recorded test outcome for the following compound: CCCCCCCCCCCCCCCCCCNc1ccn(C2OC(COP(=O)(O)OCC3OC(n4ccc(N)nc4=O)C(O)C3O)C(O)C2O)c(=O)n1 (centres undefined)
A) inactive

Q) Kindly provide the recorded test outcome for the following compound: CCOC(=O)C(C/C=C/CO)N(C)C(=O)OC(C)(C)C (centres undefined)
A) inactive

Q) Kindly provide the recorded test outcome for the following compound: "O=C(O)Cc1ccc(Nc2nc3ccccc3nc2C(=O)O)cc1"
A) inactive

Q) Kindly provide the recorded test outcome for the following compound: "Sc1ncnc2c1ncn2Cc1ccco1"
A) inactive

Q) Kindly provide the recorded test outcome for the following compound: "N#CC[C@@H](O)COc1ccccc1"
A) inactive

Q) Kindly provide the recorded test outcome for the following compound: C/C=C(\C)C(=O)OC1C2C(C)=CC(=O)C(O)C2(C)C2C3(O)OCC24C1OC(=O)C(OC(C)=O)C4C(C)C3O (centres undefined)
A) active

Q) Kindly provide the recorded test outcome for the following compound: "C#C[C@]1(O)CC[C@H]2[C@@H]3CCC4=C/C(=N/OCCN(C)C)CC[C@]4(C)[C@H]3CC[C@@]21C"
A) inactive

Q) Kindly provide the recorded test outcome for the following compound: NC(=O)NC(=O)C1CCCCC1C(=O)O (centres undefined)
A) inactive

Q) Kindly provide the recorded test outcome for the following compound: C=CC1(C)CCC2=C(CCC3C(C)(C(=O)OC)CCCC23C)C1=O (centres undefined)
A) inactive

Q) Kindly provide the recorded test outcome for the following compound: CN1c2ccccc2SC2C(c3ccccc3)=NOC21 (centres undefined)
A) inactive

Q) Kindly provide the recorded test outcome for the following compound: "COc1ccc(N(CC(=O)O)S(=O)(=O)c2ccccc2)cc1"
A) inactive

Q) Kindly provide the recorded test outcome for the following compound: CCCNC(C#N)c1ccc(C(C#N)NCCC)cc1 (centres undefined)
A) inactive

Q) Kindly provide the recorded test outcome for the following compound: "OCCN1c2ccccc2Sc2ccccc21"
A) inactive

Q) Kindly provide the recorded test outcome for the following compound: "CCC(=O)OCN(C)c1nc(N(C)COC(=O)CC)nc(N(C)COC(=O)CC)n1"
A) inactive

Q) Kindly provide the recorded test outcome for the following compound: "CCc1ccc(COC(=O)C2=C(C)NC(C)=C(C(=O)OCc3ccc(CC)cn3)C2C2=COCCO2)nc1"
A) inactive

Q) Kindly provide the recorded test outcome for the following compound: "O=C1CCCC[C@H]1[C@H]1CCC[C@@H]([C@H]2CCCCC2=O)C1=O"
A) inactive

Q) Kindly provide the recorded test outcome for the following compound: "CN(C)/N=N/c1ccc(NC=O)cc1"
A) inactive

Q) Kindly provide the recorded test outcome for the following compound: "CCCNC(=O)NNC(=O)c1c[nH]c2nc(C)ccc2c1=O"
A) inactive

Q) Kindly provide the recorded test outcome for the following compound: "C=C1c2nc3ccccc3n2C=C(c2ccccc2)N1c1ccccc1"
A) inactive

Q) Kindly provide the recorded test outcome for the following compound: Cc1cc2c(C(C)C)c(O)c(O)c(C=O)c2c(O)c1-c1c(C)cc2c(C(C)C)c(O)c(O)c(C=O)c2c1O [GOSSYPOL]
A) inactive

Q) Kindly provide the recorded test outcome for the following compound: "Oc1c(N2CCOCC2)cc(-c2cc(N3CCOCC3)c(O)c3ccccc23)c2ccccc12"
A) inactive

Q) Kindly provide the recorded test outcome for the following compound: CCCCCCCC(=O)OCC1OC(n2cc(F)c(=O)[nH]c2=O)C(N)C(O)C1O (centres undefined)
A) inactive

Q) Kindly provide the recorded test outcome for the following compound: "N#CC(C#N)=Cc1ccc(Oc2ccccc2)cc1"
A) inactive

Q) Kindly provide the recorded test outcome for the following compound: "CSS(C)(=O)=O"
A) inactive

Q) Kindly provide the recorded test outcome for the following compound: O=C(CCc1ccccc1)CC1OC(=O)C(Cl)=C1Cl (centres undefined)
A) inactive

Q) Kindly provide the recorded test outcome for the following compound: "O=C1Oc2ccccc2C(=O)/C1=C/NC(=S)Nc1ccccc1"
A) inactive

Q) Kindly provide the recorded test outcome for the following compound: "CCCCCC(/C=C/c1ncccc1OCCCCCC(=O)O)=N\NC1=NCCN1"
A) inactive

Q) Kindly provide the recorded test outcome for the following compound: "CN(C)Cc1ccc(C(C)(C)C)cc1-c1cc(C(C)(C)C)ccc1CN(C)C"
A) inactive

Q) Kindly provide the recorded test outcome for the following compound: COC(=O)C1=Cc2c(OC)cc(OC)c(OC)c2[C@H](c2cc(OC)c(OC)cc2OC)C1C(=O)OC (some centres undefined)
A) inactive

Q) Kindly provide the recorded test outcome for the following compound: O=C1C2C3CC(C4C5C=CC(C5)C34)C2C2C3CC(C12)C1C2C=CC(C2)C31 (centres undefined)
A) inactive

Q) Kindly provide the recorded test outcome for the following compound: CC(=O)OC1COC(N2CCc3ccccc32)C(OC(C)=O)C1OC(C)=O (centres undefined)
A) inactive

Q) Kindly provide the recorded test outcome for the following compound: "CN(C)c1cccc(/C=C(\C#N)c2ccccc2)c1"
A) active

Q) Kindly provide the recorded test outcome for the following compound: "O=C(CCOS(=O)(=O)CF)N1CCN(C(=O)CCOS(=O)(=O)CF)CC1"
A) inactive

Q) Kindly provide the recorded test outcome for the following compound: O=C1C(CN2CCCCC2)CCCC1CN1CCCCC1 (centres undefined)
A) inactive

Q) Kindly provide the recorded test outcome for the following compound: "O=C1O/C(=C/c2ccccc2)C(c2ccccc2)=C1O"
A) inactive

Q) Kindly provide the recorded test outcome for the following compound: COS(=O)CCOC(=O)c1ccccc1SSc1ccccc1C(=O)OCCS(=O)OC (centres undefined)
A) inactive

Q) Kindly provide the recorded test outcome for the following compound: COc1cc(C(=O)C2CC3(CCC2(O)c2cc(OC)c(OC)c(OC)c2)CC(=O)Nc2ccccc2C3=O)cc(OC)c1OC (centres undefined)
A) inactive

====

# Test system: RPMI-8226
# assay.details: NCI tumour cell line growth inhibition, 48 h
Where a name gives a salt, the structure may show the parent alone. Active and inactive are the calls of the source. Rule as the data show it: active = GI50 up to about 1.1 µM and inactive = higher.
I would appreciate it if you answered using one of these outcomes: 1 = active, 0 = inactive

Q) Kindly provide the recorded test outcome for the following compound: CCCCOC(=O)CC(CC(=O)OCCCC)(OC(C)=O)C(=O)OCCCC [ACETYLTRIBUTYL CITRATE]
A) 0

Q) Kindly provide the recorded test outcome for the following compound: "O=C1c2ccccc2-c2nnc(-c3ccccc3)cc21"
A) 0

Q) Kindly provide the recorded test outcome for the following compound: "Cc1ccc2c(O)cc(-c3sccc3C)nc2n1"
A) 1

Q) Kindly provide the recorded test outcome for the following compound: C[C@]12CCC3c4ccc(O)cc4CC[C@H]3C1CC(=O)NC2=O (some centres undefined)
A) 0

Q) Kindly provide the recorded test outcome for the following compound: "CN(C)c1nc(-c2ccccc2)c(C(=O)c2c[nH]c3ccccc23)s1"
A) 0

Q) Kindly provide the recorded test outcome for the following compound: "CC(C)(C)O/N=C/c1cc(NC(=S)c2ccsc2)ccc1Cl"
A) 0

Q) Kindly provide the recorded test outcome for the following compound: "Cc1c(CCO)c(O)n2c(nc3ccccc32)c1C#N"
A) 0

Q) Kindly provide the recorded test outcome for the following compound: CC(C)(C)c1ccc(C(C)(C)C)c(N2C(=O)C3ON=C(c4ccc([N+](=O)[O-])cc4)C3C2=O)c1 (centres undefined)
A) 0

Q) Kindly provide the recorded test outcome for the following compound: "CN(C)/N=N/c1ccc(NC=O)cc1"
A) 0

====

Exercise: state measured GI50 for each of the molecules provided.
# Test system: DMS-114
# assay.details: NCI tumour cell line growth inhibition, 48 h
Activity calls are given as the source filed them. Rule as the data show it: active = GI50 up to about 1.1 µM and inactive = higher.

Q) GI50 lookup needed for "N#C/C(=C\c1cccc(O)c1)C(N)=O" , thanks.
A) > 100 µM (inactive)

Q) GI50 lookup needed for CC(C)[C@H](CCl)NC(=O)c1cccc(C(=O)N[C@H](CCl)C(C)C)n1 (stereo in doubt) , thanks.
A) > 100 µM (inactive)

Q) GI50 lookup needed for NC(=O)c1cc([N+](=O)[O-])cc([N+](=O)[O-])c1 [NITROMIDE] , thanks.
A) 38.5 µM (inactive)

Q) GI50 lookup needed for "NC(=S)NNC(=O)CCC(=O)Nc1ccc(Cl)cc1Cl" , thanks.
A) 41.7 µM (inactive)

Q) GI50 lookup needed for COC(=O)C1Cc2c([nH]c3ccccc23)C=N1 (stereo unspecified) , thanks.
A) > 100 µM (inactive)

Q) GI50 lookup needed for C=CC1(C)CCC2=C(CCC3C(C)(C(=O)OC)CCCC23C)C1=O (stereo unspecified) , thanks.
A) 15.3 µM (inactive)
